Numbers sourced from paper PMC4505066.

- Tgt: T1, HDAC5 catalytic domain
- T1 chain: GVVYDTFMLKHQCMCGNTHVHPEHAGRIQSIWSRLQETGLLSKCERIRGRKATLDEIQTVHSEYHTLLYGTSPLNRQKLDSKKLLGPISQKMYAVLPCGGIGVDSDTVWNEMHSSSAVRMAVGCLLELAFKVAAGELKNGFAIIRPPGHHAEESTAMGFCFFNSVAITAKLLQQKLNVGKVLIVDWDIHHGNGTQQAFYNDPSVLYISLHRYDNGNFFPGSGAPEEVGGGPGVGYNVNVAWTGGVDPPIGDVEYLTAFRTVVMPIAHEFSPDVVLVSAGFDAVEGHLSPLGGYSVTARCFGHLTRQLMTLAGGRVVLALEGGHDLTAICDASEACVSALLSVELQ
- Procedure Summary: FP
pKd: −log10 of the molar value. No end group written: not given here.

[
  {
    "Binder": "C(BODIPY‑TMR)PRPLKEGSITQGTPLKYDTG",
    "pKd": 5.37
  }
]
